Biological target: mouse melanocortin-3 receptor (mouse, UniProt P33033 1-323)
Sequence (P33033 whole entry): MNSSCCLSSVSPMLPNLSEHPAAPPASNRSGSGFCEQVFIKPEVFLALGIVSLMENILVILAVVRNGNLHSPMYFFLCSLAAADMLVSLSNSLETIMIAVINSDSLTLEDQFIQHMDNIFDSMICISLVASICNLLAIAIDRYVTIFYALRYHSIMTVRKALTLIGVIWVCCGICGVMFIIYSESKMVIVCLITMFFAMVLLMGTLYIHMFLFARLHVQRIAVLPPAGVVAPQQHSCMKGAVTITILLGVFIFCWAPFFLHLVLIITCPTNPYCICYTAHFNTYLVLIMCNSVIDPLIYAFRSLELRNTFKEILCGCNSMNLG
Test: cell-based or functional assay
Bridges are numbered along the chain shown (N, C = ends). Where no end group is shown, it is not given here. [ ]: non-standard residue; d: D form. Nle = CCCC[C@H](N)C(=O)O; Dap = NC[C@H](N)C(=O)O
Lab note: compare pA2 (antagonist) against 8. Equal or greater, write True. Smaller, write False.

binder="YDRFFNAF[Dap]Y-NH2 (lactam 2-9) [SEQ ID NO:3 (Tyr-c[Asp-Arg-Phe-Phe-Asn-Ala-Phe-Dpr]-Tyr)]" class=False
binder="YDXXRWNAFXY (Asp-Dpr side chain lactam bridge; Dpr; (rac)Atc; DPhe; C-terminal amide (amide resin)) [SEQ ID NO:30 (Tyr-c[Asp-(rac)Atc-DPhe-Arg-Trp-Asn-Ala-Phe-Dpr]-Tyr)]" class=False
binder="YDHXRWNAFXY (Asp-Dpr side chain lactam bridge; Dpr; (pI)DPhe; C-terminal amide (amide resin)) [SEQ ID NO:32 (Tyr-c[Asp-His-(pI)DPhe-Arg-Trp-Asn-Ala-Phe-Dpr]-Tyr)]" class=True
binder="Ac-SYS[Nle]YDRFFNAF[Dap]YKPV-NH2 (lactam 6-13; SMILES CCCC[C@H](NC(=O)[C@H](CO)NC(=O)[C@H](Cc1ccc(O)cc1)NC(=O)[C@H](CO)NC(C)=O)C(=O)N[C@@H](Cc1ccc(O)cc1)C(=O)N[C@H]1CC(=O)NC[C@@H](C(=O)N[C@@H](Cc2ccc(O)cc2)C(=O)N[C@@H](CCCCN)C(=O)N2CCC[C@H]2C(=O)N[C@H](C(N)=O)C(C)C)NC(=O)[C@H](Cc2ccccc2)NC(=O)[C@H](C)NC(=O)[C@H](CC(N)=O)NC(=O)[C@H](Cc2ccccc2)NC(=O)[C@H](Cc2ccccc2)NC(=O)[C@H](CCCNC(=N)N)NC1=O) [SEQ ID NO:11 (Ac-Ser-Tyr-Ser-Nle-Tyr-c[Asp-Arg-Phe-Phe-Asn-Ala-Phe-Dpr]-Tyr-Lys-Pro-Val)]" class=False
binder="YDHXRWNAFXY (Asp-Dpr side chain lactam bridge; Dpr; DNal(2′); C-terminal amide (amide resin)) [SEQ ID NO:33 (Tyr-c[Asp-His-DNal(2′)-Arg-Trp-Asn-Ala-Phe-Dpr]-Tyr)]" class=True
